Provenance of the data: ChEMBL document CHEMBL3621200

- Tested on: HEL
- TEST PROTOCOL: Cytotoxicity against human cytomegalovirus infected HEL cells assessed as cell growth inhibition incubated for 3 days by coulter counter method
- Assay type: cell-based
- REPORTED CONDITIONS: 72 h
Property: CC50; scope: individual molecules
Report the figure in µM without appending any unit label.

Example cases with answers are listed next.
molecule O=C(Cn1c(=O)ccn(CCCCOc2ccc(Br)cc2)c1=O)Nc1ccc(Oc2ccccc2)cc1 , CC50 observed: 7.7

The recorded CC50 for entry O=C(Cn1c(=O)ccn(CCCCCCOc2ccc(Br)cc2)c1=O)Nc1ccc(Oc2ccccc2)cc1 equals 11.7

Memo: O=C(Cn1c(=O)ccn(CCCCCOc2ccccc2)c1=O)Nc1ccc(Oc2ccccc2)cc1 , reported CC50: 5.4

Let us examine a further case.
So for N#Cc1ccc(OCCCCCn2ccc(=O)n(CC(=O)Nc3ccc(Oc4ccccc4)cc3)c2=O)cc1 , the logged CC50 turned out to be 4.9

---

- System: Vaccinia virus
- TEST PROTOCOL: Antiviral activity against Vaccinia virus Lederle
- Type: functional, organism-based
- REPORTED CONDITIONS: Orthopoxvirus vaccinia
Activity calls are given as the source filed them. The rule behind the calls is not given here.
MEASURED METRIC: inhibition

For orientation, consider the following solved cases.
inhibition recorded for this compound, O=C(Cn1c(=O)ccn(CCCCCOc2ccc(-c3ccccc3)cc2)c1=O)Nc1ccc(Oc2ccccc2)cc1 , is inactive

// sample O=C(Cn1c(=O)ccn(CCCCCCOc2ccc(Br)cc2)c1=O)Nc1ccc(Oc2ccccc2)cc1 , its inhibition was inactive

Reported inhibition of O=C(Cn1c(=O)ccn(COCCOCc2ccc(Br)cc2)c1=O)Nc1ccc(Oc2ccccc2)cc1 : inactive

Just so you know, measured inhibition for O=C(Cn1c(=O)ccn(CCCCCCCCOc2ccc(Br)cc2)c1=O)Nc1ccc(Oc2ccccc2)cc1 came out at inactive

Sure, the documented inhibition for O=C(Cn1c(=O)ccn(CCCCCOc2cccc(Br)c2)c1=O)Nc1ccc(Oc2ccccc2)cc1 is inactive

New cases:
inhibition reading for O=C(Cn1c(=O)ccn(CCCCCOc2ccc(Br)cc2)c1=O)Nc1ccccc1 : inactive

For record O=C(Cn1c(=O)ccn(CCCCOCc2ccc(Br)cc2)c1=O)Nc1ccc(Oc2ccccc2)cc1 the listed inhibition is inactive

// O=C(Cn1c(=O)c(I)cn(CCCCCOc2ccc(Br)cc2)c1=O)Nc1ccc(Oc2ccccc2)cc1 : inhibition value = inactive

Form field inhibition, entry O=C(Cn1c(=O)ccn(Cc2ccc(Oc3ccc(Br)cc3)cc2)c1=O)Nc1ccc(Oc2ccccc2)cc1 : inactive

Item: O=C(Cn1c(=O)ccn(CCCCOc2ccc(Br)cc2)c1=O)Nc1ccc(Oc2ccccc2)cc1 | inhibition: inactive

---

- Tested on: HEL
- TEST PROTOCOL: Cytotoxicity against human cytomegalovirus infected HEL cells assessed as cell growth inhibition incubated for 3 days by coulter counter method
- Assay type: cell-based
- REPORTED CONDITIONS: 72 h
Criterion: CC50 strictly less than 9 µM. Met: label 1. Not met: label 0.

Take a look at these entries with their results.
Query string: Please check: CC50 for CN(C(=O)Cn1c(=O)ccn(CCCCCOc2ccc(Br)cc2)c1=O)c1ccc(Oc2ccccc2)cc1 , strictly under 9 µM or not?
Result string: label 1

Query string: Find out if reported CC50 for O=C(Cn1c(=O)ccn(CCCOc2ccc(Br)cc2)c1=O)Nc1ccc(Oc2ccccc2)cc1 is less than 9 µM
Result string: label 0

Query string: Does this compound meet the criterion CC50 < 9 µM? O=C(Cn1c(=O)ccn(CCCCCOc2ccc(-c3ccccc3)cc2)c1=O)Nc1ccc(Oc2ccccc2)cc1
Result string: label 1

Query string: Item O=C(Cn1c(=O)ccn(CCCCCOc2ccc(Br)cc2)c1=O)Nc1ccc(Oc2ccccc2)cc1 : CC50 beneath 9 µM, strictly?
Result string: label 1

Query string: Just wondering, is CC50 of O=C(Cn1c(=O)ccn(CCCCCOc2cccc(Br)c2)c1=O)Nc1ccc(Oc2ccccc2)cc1 below 9 µM?
Result string: label 1

Query string: CC50 strictly < 9 µM for this compound? O=C(Cn1c(=O)ccn(CCCCCOc2ccc(Br)cc2)c1=O)Nc1ccc(Cc2ccccc2)cc1
Result string: label 1

Query string: Take the compound O=C(Cn1c(=O)ccn(CCCCOCc2ccc(Br)cc2)c1=O)Nc1ccc(Oc2ccccc2)cc1 and say whether its CC50 is less than 9 µM.
Result string: label 1

Query string: is_below(CC50, 9 µM) for Nc1nc(O)c2ncn(COC(CO)CO)c2n1 [GANCICLOVIR] ?
Result string: label 0

Consider the additional compound presented here.
Query string: Is the reported CC50 for O=C(Cn1c(=O)ccn(CCCCCOc2ccc(Br)cc2)c1=O)Nc1ccc(C(=O)c2ccccc2)cc1 strictly below 9 µM?
Result string: label 1
